Target: PKM2 (Homo sapiens, UniProt P14618)
Sequence (P14618 whole entry): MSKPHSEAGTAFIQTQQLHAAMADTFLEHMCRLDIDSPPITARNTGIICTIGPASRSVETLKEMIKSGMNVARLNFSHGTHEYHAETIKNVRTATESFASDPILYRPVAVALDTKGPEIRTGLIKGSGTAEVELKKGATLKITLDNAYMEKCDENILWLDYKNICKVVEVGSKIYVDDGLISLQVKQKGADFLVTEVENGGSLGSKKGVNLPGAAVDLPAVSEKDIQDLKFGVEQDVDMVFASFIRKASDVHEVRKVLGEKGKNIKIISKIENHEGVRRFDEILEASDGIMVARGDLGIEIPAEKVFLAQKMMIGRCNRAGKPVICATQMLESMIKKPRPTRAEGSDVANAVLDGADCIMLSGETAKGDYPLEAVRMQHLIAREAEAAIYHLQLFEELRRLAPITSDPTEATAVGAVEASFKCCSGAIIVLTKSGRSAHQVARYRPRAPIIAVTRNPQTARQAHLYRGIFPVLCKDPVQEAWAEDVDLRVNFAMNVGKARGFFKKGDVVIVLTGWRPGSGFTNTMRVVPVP
Test: PKM2 Biochemical Assay
Settings: % maximum response in a biochemical assay as compared with Fructose 1,6-bisphosphate
measured attribute: Max. Resp. (%)

Below, each entry is followed by its recorded Max. Resp. result.
1) COC1CCN(CCN(Cc2c(N)cccc2Cl)C(=O)c2cc(C(F)(F)F)n[nH]2)C1 (centres unmarked) = 100
2) Nc1cccc(Cl)c1CN(CCN1CC[C@@H](F)C1)C(=O)c1cc(C(F)(F)F)n[nH]1 = 100
3) O=C(c1cc(C(F)(F)F)n[nH]1)N(CCC1CCSCC1)Cc1c(F)cccc1F = 73
4) O=C(c1cc(C(F)(F)F)n[nH]1)N(CCC1CCC2(CC1)OCCO2)Cc1ccccc1F = 100
5) CN(C)Cc1c[nH]c2cccc(CN(CC3CCC3)C(=O)c3cc(Cl)n[nH]3)c12 = 100

[I] O=C(c1cc(C(F)(F)F)n[nH]1)N(CCN1CCCC1)Cc1c(F)cccc1Cl
[II] O=C(c1cc(C(F)(F)F)n[nH]1)N(CCC1CCS(=O)(=O)C1)Cc1cncs1 (centres unmarked)
[III] O=C(c1cc(C(F)(F)F)n[nH]1)N(Cc1ccccc1Cl)C1CCOCC1
[IV] N#Cc1cc(C(=O)N(Cc2ccc(O)cc2F)CC2CCC2)[nH]n1
Data request: Provide the items ranked by increasing Max. Resp.. Reply format: the labels, ordered as requested.
Data returned: II, IV, III, I
(II: 26%, IV: 39%, III: 59%, I: 100%)

[P] O=C(c1cc(C(F)(F)F)n[nH]1)N(Cc1cccc2[nH]ccc12)CC1COC1
[Q] CC1CC(C)CN(CCN(Cc2ccccc2Cl)C(=O)c2cc(C(F)(F)F)n[nH]2)C1 (centres unmarked)
Data request: Between P and Q , which one shows the larger Max. Resp. value? Let me know the label of the one you choose.
Data returned: P
(P: 101%, Q: 60%)

[a] COCCCN(Cc1ccccc1Cl)C(=O)c1cc(C(F)(F)F)n[nH]1 [Example 29]
[b] CC(C)OCCN(Cc1ccccc1Cl)C(=O)c1cc(C(F)(F)F)n[nH]1
Data request: Two entries are listed, a and b . Which one carries the higher Max. Resp.? Your answer should be the label of the entry you select.
Data returned: a
(a: 87%, b: 37%)

* * *

Molecular target: PKM2 (Homo sapiens, UniProt P14618)
Assay: PKM2 Biochemical Assay
Settings: % maximum response in a biochemical assay as compared with Fructose 1,6-bisphosphate
measured attribute: Max. Resp. (%)

# example entries with known answers
1) CO[C@H]1CC[C@H](N(Cc2ccccc2F)C(=O)c2cc(C(F)(F)F)n[nH]2)CC1 [Example 47] = 89
2) O=C(c1cc(C(F)(F)F)n[nH]1)N(CCC1CCCOC1)Cc1ccccc1Cl (centres unmarked) [Example 36] = 88
3) CCN(CC)CCN(Cc1ccccc1Cl)C(=O)c1cc(Cl)n[nH]1 [Example 176] = 100

[I] CC(CN(Cc1ccccc1Cl)C(=O)c1cc(C(F)(F)F)n[nH]1)N1CCCC1 (centres unmarked) [Example 181]
[II] CCN(CC)CCCN(Cc1ccccc1Cl)C(=O)c1cc(C(F)(F)F)n[nH]1 [Example 185]
Data request: Lab note: check whether I or II shows the higher recorded Max. Resp.. Your answer should be the label attached to the chosen record.
Data returned: I

[I] O=C(c1cc(C(F)(F)F)n[nH]1)N(CCC1CCOCC1)Cc1ccccc1Cl [Example 32]
[II] O=C(c1cc(C(F)(F)F)n[nH]1)N(Cc1ccccc1F)CC1CCS(=O)(=O)CC1 [Example 71]
[III] CO[C@H]1CC[C@H](N(Cc2cc(F)cc(F)c2)C(=O)c2cc(C(F)(F)F)n[nH]2)CC1 [Example 51]
Data request: Order the entries by their reported Max. Resp., beginning at the minimum. Answer by listing the labels in the order asked for.
Data returned: III, II, I
(III: 31%, II: 71%, I: 107%)

* * *

Target: PKM2 (Homo sapiens, UniProt P14618)
Test: PKM2 Biochemical Assay
Details: % maximum response in a biochemical assay as compared with Fructose 1,6-bisphosphate
measured attribute: Max. Resp. (%)

Example compounds with recorded Max. Resp.:
1. O=C(c1cc(C(F)(F)F)n[nH]1)N(CCC1CCS(=O)(=O)C1)Cc1ccccc1Cl (stereo not drawn) = 105
2. CS(=O)(=O)N1CCC(CCN(Cc2ccccc2F)C(=O)c2cc(C(F)(F)F)n[nH]2)CC1 = 100
3. O=C(c1cc(C(F)(F)F)n[nH]1)N(CCC1CCS(=O)(=O)CC1)Cc1ccc(O)cc1F = 100
4. CCN(CC)CCN(Cc1ccccc1Cl)C(=O)c1[nH]nc(Cl)c1F = 58
5. CCN(CC)CCN(Cc1cccc(N)c1)C(=O)c1cc(C(F)(F)F)n[nH]1 = 100
6. O=C(c1cc(C(F)(F)F)n[nH]1)N(CCC1CC1)Cc1ccccc1F = 100
7. O=C(c1cc(C(F)(F)F)n[nH]1)N(Cc1cccc(F)c1O)CC1CCC1 = 100
8. COCCCN(Cc1ccccc1Cl)C(=O)c1cc(C(F)(F)F)n[nH]1 [Example 31] = 82

[P] CC(C)O[C@H]1CC[C@H](N(Cc2ccccc2Cl)C(=O)c2cc(C(F)(F)F)n[nH]2)CC1
[Q] O=C(c1cc(C(F)(F)F)n[nH]1)N(Cc1cccc2[nH]cnc12)CC1CCC1
Data request: Name the one with the greater Max. Resp. value, either P or Q as given. Selection: enter the item's label.
Data returned: Q

* * *

Biological target: PKM2 (Homo sapiens, UniProt P14618)
Test: PKM2 Biochemical Assay
Settings: % maximum response in a biochemical assay as compared with Fructose 1,6-bisphosphate
measured attribute: Max. Resp. (%)

1) CC1CCN(CCN(Cc2ccccc2Cl)C(=O)c2cc(C(F)(F)F)n[nH]2)CC1 [Example 190] = 100
2) CCOCCN(Cc1c(Cl)cccc1Cl)C(=O)c1cc(C(F)(F)F)n[nH]1 [Example 42] = 76
3) CCNCCN(Cc1ccccc1F)C(=O)c1cc(C(F)(F)F)n[nH]1 [Example 155] = 100

[1] O=C(c1cc(C(F)(F)F)n[nH]1)N(CCC1CCOC1)Cc1ccccc1Cl (stereo not shown) [Example 43]
[2] O=C(c1cc(Br)n[nH]1)N(CCC1CCSCC1)Cc1ccccc1F [Example 82]
Data request: // task: argmin of Max. Resp. over [ 1 , 2 ] In your reply, give the label of the chosen option.
Data returned: 2
(2: 74%, 1: 110%)

* * *

Target: PKM2 (Homo sapiens)
Experiment: PKM2 Biochemical Assay
Details: % maximum response in a biochemical assay as compared with Fructose 1,6-bisphosphate
measured attribute: Max. Resp. (%)

Worked examples, 5 molecules total:
1) Nc1cccc(Cl)c1CN(CCN1CCCCCC1)C(=O)c1cc(C(F)(F)F)n[nH]1 [Example 218] = 100
2) O=C1CCC(CCN(Cc2ccccc2F)C(=O)c2cc(C(F)(F)F)n[nH]2)CC1 [Example 60] = 105
3) O=C(c1cc(C(F)(F)F)n[nH]1)N(CCOC1CCCC1)Cc1ccccc1F [Example 39] = 30
4) O=C(c1cc(C(F)(F)F)n[nH]1)N(Cc1ccc(O)cc1F)CC1CCC1 [Example 1] = 100
5) CCN(CC)CCN(Cc1ccc(O)cc1F)C(=O)c1cc(C(F)(F)F)n[nH]1 [Example 143] = 100

[A] O=C(c1cc(C(F)(F)F)n[nH]1)N(CCC1CC[S+]([O-])CC1)Cc1ccccc1Cl (stereo not drawn) [Example 74]
[B] CC(c1ccccc1)N(CC1CCC1)C(=O)c1cc(Br)n[nH]1 (stereo not drawn) [Example 4]
Data request: Looking only at measured Max. Resp., which entry is lower, A or B ? Mark your answer with the label of the selected entry.
Data returned: B

* * *

Target: PKM2 (Homo sapiens, UniProt P14618)
Assay: PKM2 Biochemical Assay
Settings: % maximum response in a biochemical assay as compared with Fructose 1,6-bisphosphate
measured attribute: Max. Resp. (%)

Recorded results for 5 compounds are shown here.
1. CCCCCN(Cc1ccccc1)C(=O)c1cc(C(F)(F)F)n[nH]1 = 76
2. CCN(CC)CCN(Cc1ccccc1Cl)C(=O)c1cc(C(F)(F)F)n[nH]1 = 100
3. CC1CCCN(CCN(Cc2ccccc2F)C(=O)c2cc(C(F)(F)F)n[nH]2)C1 (centres unmarked) = 100
4. CO[C@H]1CC[C@H](N(Cc2ncccc2Cl)C(=O)c2cc(C(F)(F)F)n[nH]2)CC1 = 48
5. CO[C@H]1CC[C@H](N(Cc2cc(F)ccc2F)C(=O)c2cc(C(F)(F)F)n[nH]2)CC1 = 90

[P] Nc1cccc(Cl)c1CN(CCN1CCCC(O)C1)C(=O)c1cc(C(F)(F)F)n[nH]1 (centres unmarked)
[Q] CCN1CCC(N(Cc2ccccc2F)C(=O)c2cc(C(F)(F)F)n[nH]2)C1 (centres unmarked)
Data request: Sorting ascending by Max. Resp., which comes first: P or Q ? Please indicate the selected item by its label.
Data returned: Q
(Q: 68%, P: 100%)
